Molecular target: canine TRPM8 (Canis lupus familiaris)
Construct: expressed in transfected cells
Sequence (Q1A7N1 1-1104): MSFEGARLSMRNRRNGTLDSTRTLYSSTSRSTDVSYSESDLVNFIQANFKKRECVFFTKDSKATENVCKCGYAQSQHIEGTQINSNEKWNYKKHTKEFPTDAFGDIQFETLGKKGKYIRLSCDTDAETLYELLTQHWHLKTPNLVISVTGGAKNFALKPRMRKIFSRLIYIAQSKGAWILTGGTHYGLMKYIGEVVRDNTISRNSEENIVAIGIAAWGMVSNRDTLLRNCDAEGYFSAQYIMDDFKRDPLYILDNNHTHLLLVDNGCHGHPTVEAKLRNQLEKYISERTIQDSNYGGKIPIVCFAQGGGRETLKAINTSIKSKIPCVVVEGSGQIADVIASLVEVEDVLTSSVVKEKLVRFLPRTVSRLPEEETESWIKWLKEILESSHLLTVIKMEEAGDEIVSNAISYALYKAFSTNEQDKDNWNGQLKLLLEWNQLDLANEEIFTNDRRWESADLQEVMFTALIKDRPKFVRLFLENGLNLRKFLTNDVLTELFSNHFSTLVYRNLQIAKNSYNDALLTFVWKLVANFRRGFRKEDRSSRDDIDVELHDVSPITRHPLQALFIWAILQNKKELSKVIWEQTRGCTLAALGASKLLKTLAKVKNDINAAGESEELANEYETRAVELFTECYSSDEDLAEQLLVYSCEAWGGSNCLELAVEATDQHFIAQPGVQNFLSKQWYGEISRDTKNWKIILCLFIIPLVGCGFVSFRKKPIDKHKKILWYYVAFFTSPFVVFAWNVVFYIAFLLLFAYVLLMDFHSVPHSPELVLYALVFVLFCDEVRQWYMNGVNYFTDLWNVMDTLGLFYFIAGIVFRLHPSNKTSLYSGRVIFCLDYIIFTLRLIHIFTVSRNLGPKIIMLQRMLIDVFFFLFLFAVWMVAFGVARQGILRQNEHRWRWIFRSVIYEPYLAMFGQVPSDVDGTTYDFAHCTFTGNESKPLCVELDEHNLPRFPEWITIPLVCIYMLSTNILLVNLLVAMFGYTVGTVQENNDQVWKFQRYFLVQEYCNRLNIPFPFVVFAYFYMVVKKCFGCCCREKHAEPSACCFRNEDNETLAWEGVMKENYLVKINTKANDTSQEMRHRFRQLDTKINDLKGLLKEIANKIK
Test: In Vitro Canine TRPM8 Functional Assay (Ca2+-sensitive fluorescent dye, icilin activation, FLIPR/FDSS)
Format: cell-based
Conditions: compound at 0.5 μM; HEK293 cells stably expressing canine TRPM8, icilin activation
value-type: % I (0.5 μM) (%)

{"compound": "CCOP(=O)(OCC)C(Cc1cccc(OC)c1F)c1sc2ccccc2c1Br (centres unmarked)", "value-unit": "%", "obs-value": 103}
{"compound": "CC(C)OP(=O)(OC(C)C)C(Cc1ccc(SC(F)(F)F)cc1)c1sc2ccccc2c1Cl (centres unmarked)", "value-unit": "%", "obs-value": 102}
{"compound": "CC(C)OP(=O)(OC(C)C)C(Cc1cccc(O)c1F)c1sc2ccccc2c1Br (centres unmarked)", "value-unit": "%", "obs-value": 97}
{"compound": "CCOP(=O)(OCC)C(Cc1ccc(F)c(F)c1)c1sc2cccc(F)c2c1Br (centres unmarked)", "value-unit": "%", "obs-value": 102}
{"compound": "CC(C)OP(=O)(OC(C)C)C(Cc1cccc(OC(F)(F)F)c1)c1sc2ccccc2c1Cl (centres unmarked)", "value-unit": "%", "obs-value": 102}
{"compound": "CC(C)OP(=O)(OC(C)C)C(Cc1ccccc1C(F)(F)F)c1sc2ccccc2c1Cl (centres unmarked)", "value-unit": "%", "obs-value": 103}
{"compound": "CCOP(=O)(OCC)C(Cc1ccc(F)c(C(F)(F)F)c1)c1sc2ccccc2c1Cl (centres unmarked) [Cpd 298]", "value-unit": "%", "obs-value": 99}
{"compound": "CCOP(=O)(OCC)C(Cc1ccc(F)c(F)c1)c1sc2ccccc2c1-c1ccc(F)cc1 (centres unmarked)", "value-unit": "%", "obs-value": 101}
{"compound": "CCOP(=O)(OCC)C(Cc1ccccc1Cl)c1sc2ccccc2c1Br (centres unmarked)", "value-unit": "%", "obs-value": 103}
{"compound": "CCOP(=O)(OCC)C(Cc1cccc(N)c1)c1sc2ccccc2c1Br (centres unmarked)", "value-unit": "%", "obs-value": 100}
{"compound": "CCOP(=O)(OCC)C(Cc1ccc(F)c(O)c1)c1sc2ccccc2c1Br (centres unmarked)", "value-unit": "%", "obs-value": 103}
